tested on: 53BP1 TTD; test: Histone peptide microarray, 53BP1 TTD; type: binding; details: 53BP1 TTD hits, average signal per peptide
Field: Avg Signal. Provide a value for each of the substances that follow.
Just the number, please, no unit attached.

stdin: Please indicate recorded Avg Signal of PEPAK(Me)SAPAPKKGSKKAVTKAQKK-Peg-Biot [Peptide H2BK5me1] measured with 53BP1 TTD.
stdout: 0.1012

stdin: Please indicate recorded Avg Signal of ACitTK(Me3)QTARKSTGGKAPRKQL-K(Biot)-NH2 [H3.1Cit2K4me3] measured with 53BP1 TTD.
stdout: 0.1746

stdin: Please indicate recorded Avg Signal of Ac-SGRGKGGKGLGK(Ac)GGAKRHRKVLR-Peg-Biot [Peptide H4K12ac] measured with 53BP1 TTD.
stdout: 0.1511

stdin: Please indicate recorded Avg Signal of ARTKQTAR(Me2s)K(Me)STGGKAPRKQL-K(Biot)-NH2 [H3.1R8me2sK9me1] measured with 53BP1 TTD.
stdout: 0.2791

stdin: Please indicate recorded Avg Signal of ARTK(Me)QTARKSTGGKAPRKQL-K(Biot)-NH2 [Peptide H3.1K4me1] measured with 53BP1 TTD.
stdout: 0.08871

stdin: Please indicate recorded Avg Signal of Ac-APRKQLATKAAR(Me2a)K(Me3)SAPSTGG-Peg-Biot [H3.3R26me2aK27me3] measured with 53BP1 TTD.
stdout: 0.1003

stdin: Please indicate recorded Avg Signal of KSAPSTGGVK(Ac)KPHRYKPGT-GG-K(Biot)-NH2 [yH3K36ac] measured with 53BP1 TTD.
stdout: 0.06747

stdin: Please indicate recorded Avg Signal of ARTKQpTARK(Me3)STGGKAPRKQL-K(Biot)-NH2 [Peptide H3.1T6pK9me3] measured with 53BP1 TTD.
stdout: 0.226

stdin: Please indicate recorded Avg Signal of ARTKQTAR(Me)K(Me2)STGGKAPRKQL-K(Biot)-NH2 [H3.1R8me1K9me2] measured with 53BP1 TTD.
stdout: 0.4249

stdin: Please indicate recorded Avg Signal of Ac-GKGGAKRHRKVLRDNIQ-Peg-Biot [H4(11-27)] measured with 53BP1 TTD.
stdout: 0.128

stdin: Please indicate recorded Avg Signal of Ac-SGRGK(Ac)GGKGLGK(Ac)GGAKRHRKVLR-Peg-Biot [Peptide H4K5acK12ac] measured with 53BP1 TTD.
stdout: 0.08013

stdin: Please indicate recorded Avg Signal of KSAPSTGGVK(Me3)KPHRYKPGT-G-K(Biot)-NH2 [yH3K36me3] measured with 53BP1 TTD.
stdout: 0.1137

stdin: Please indicate recorded Avg Signal of KSAPSTGGVK(Me2)KPHRYKPGT-GG-K(Biot)-NH2 [yH3K36me2] measured with 53BP1 TTD.
stdout: 0.8217

stdin: Please indicate recorded Avg Signal of KSAPSTGGVKKPHRYKPGT-GG-K(Biot)-NH2 (C-terminal GG-K(biotin) amide) [yH3.1(27-45)] measured with 53BP1 TTD.
stdout: 0.1127

stdin: Please indicate recorded Avg Signal of ARpTK(Me3)QTARKSTGGKAPRKQL-K(Biot)-NH2 [Peptide H3.1T3pK4me3] measured with 53BP1 TTD.
stdout: 0.0446

stdin: Please indicate recorded Avg Signal of ARTKQpTARKSTGGKAPRKQL-K(Biot)-NH2 [Peptide H3.1T6p] measured with 53BP1 TTD.
stdout: 0.07045

stdin: Please indicate recorded Avg Signal of Ac-APRKQLATKAARK(Me3)SAPSTGG-Peg-Biot [Peptide H3.3K27me3] measured with 53BP1 TTD.
stdout: 0.04567

stdin: Please indicate recorded Avg Signal of ARTK(Me3)QTARK(Ac)STGGKAPRK(Ac)QL-K(Biot)-NH2 [H3.1K4me3K9acK18ac] measured with 53BP1 TTD.
stdout: 0.0915

stdin: Please indicate recorded Avg Signal of ARTK(Me2)QpTARKSTGGKAPRKQL-K(Biot)-NH2 [Peptide H3.1K4me2T6p] measured with 53BP1 TTD.
stdout: 0.2267
